# IC50 listing for each entry below
TEST_SYSTEM: Ribosomal protein S6 kinase beta-1 (Homo sapiens)
Sequence (P23443 whole entry): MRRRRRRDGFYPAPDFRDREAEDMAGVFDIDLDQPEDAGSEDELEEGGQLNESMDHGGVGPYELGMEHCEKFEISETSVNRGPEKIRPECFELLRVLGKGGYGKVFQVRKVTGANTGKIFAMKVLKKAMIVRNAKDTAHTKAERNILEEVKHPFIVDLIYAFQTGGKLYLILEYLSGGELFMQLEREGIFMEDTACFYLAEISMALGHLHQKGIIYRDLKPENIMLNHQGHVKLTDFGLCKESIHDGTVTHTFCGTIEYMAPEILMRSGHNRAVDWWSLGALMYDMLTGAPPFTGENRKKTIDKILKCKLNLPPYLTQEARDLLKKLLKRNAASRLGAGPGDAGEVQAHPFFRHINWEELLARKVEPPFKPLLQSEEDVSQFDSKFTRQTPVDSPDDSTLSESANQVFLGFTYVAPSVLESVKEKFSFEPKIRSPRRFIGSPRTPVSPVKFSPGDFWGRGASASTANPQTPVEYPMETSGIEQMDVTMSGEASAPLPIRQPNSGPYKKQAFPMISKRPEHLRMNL
ASSAY_REMARKS: Inhibition of recombinant RPS6K1 (unknown origin) by FRET-based Z'-LYTE assay

COMPOUND_STRUCTURE_STRING: CN1C/C(=C\c2ccccn2)C(=O)[C@@H](Cc2ccccn2)C1
TEST_SYSTEM: Ribosomal protein S6 kinase beta-1 (Homo sapiens)
CENSORING_QUALIFIER: >
IC50, µM: 100
//
COMPOUND_STRUCTURE_STRING: O=C1/C(=C/c2ccccn2)CNC/C1=C\c1ccccn1
TEST_SYSTEM: Ribosomal protein S6 kinase beta-1 (Homo sapiens)
CENSORING_QUALIFIER: =
IC50, µM: 1.4
//
COMPOUND_STRUCTURE_STRING: CN1C/C(=C\c2ccccn2)C(=O)/C(=C/c2ccccn2)C1
TEST_SYSTEM: Ribosomal protein S6 kinase beta-1 (Homo sapiens)
CENSORING_QUALIFIER: =
IC50, µM: 6
//
COMPOUND_STRUCTURE_STRING: O=C1/C(=C/c2ccccn2)CSC/C1=C\c1ccccn1
TEST_SYSTEM: Ribosomal protein S6 kinase beta-1 (Homo sapiens)
CENSORING_QUALIFIER: =
IC50, µM: 12
//
COMPOUND_STRUCTURE_STRING: CN1C/C(=C\c2ccccn2)C(=O)[C@H](Cc2ccccn2)C1
TEST_SYSTEM: Ribosomal protein S6 kinase beta-1 (Homo sapiens)
CENSORING_QUALIFIER: >
IC50, µM: 100

====

# IC50 listing for each entry below
TEST_SYSTEM: RAC-alpha serine/threonine-protein kinase (Homo sapiens, UniProt P31749)
Sequence (P31749 whole entry): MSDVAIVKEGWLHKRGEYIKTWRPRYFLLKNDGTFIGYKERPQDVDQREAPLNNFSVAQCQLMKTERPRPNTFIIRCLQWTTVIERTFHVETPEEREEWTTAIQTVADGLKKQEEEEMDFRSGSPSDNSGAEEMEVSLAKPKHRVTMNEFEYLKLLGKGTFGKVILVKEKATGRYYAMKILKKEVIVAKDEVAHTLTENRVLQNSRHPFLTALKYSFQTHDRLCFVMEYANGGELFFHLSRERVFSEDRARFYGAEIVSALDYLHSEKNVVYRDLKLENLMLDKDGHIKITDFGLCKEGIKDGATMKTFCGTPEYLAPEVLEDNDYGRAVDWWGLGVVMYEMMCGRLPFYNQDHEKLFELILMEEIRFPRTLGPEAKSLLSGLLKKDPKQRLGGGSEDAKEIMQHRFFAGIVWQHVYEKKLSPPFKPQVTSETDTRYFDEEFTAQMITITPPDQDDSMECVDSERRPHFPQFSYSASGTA
ASSAY_REMARKS: Inhibition of recombinant AKT1 (unknown origin) by FRET-based Z'-LYTE assay

COMPOUND_STRUCTURE_STRING: CN1C/C(=C\c2ccccn2)C(=O)/C(=C/c2ccccn2)C1
IC50 / nM: 2600
--
COMPOUND_STRUCTURE_STRING: O=C1/C(=C/c2ccccn2)CNC/C1=C\c1ccccn1
IC50 / nM: 20
--
COMPOUND_STRUCTURE_STRING: O=C1/C(=C/c2ccccn2)CSC/C1=C\c1ccccn1
IC50 / nM: 3600

====

# IC50 listing for each entry below
TEST_SYSTEM: Inhibitor of nuclear factor kappa-B kinase subunit beta (Homo sapiens, UniProt O14920)
Sequence (O14920 whole entry): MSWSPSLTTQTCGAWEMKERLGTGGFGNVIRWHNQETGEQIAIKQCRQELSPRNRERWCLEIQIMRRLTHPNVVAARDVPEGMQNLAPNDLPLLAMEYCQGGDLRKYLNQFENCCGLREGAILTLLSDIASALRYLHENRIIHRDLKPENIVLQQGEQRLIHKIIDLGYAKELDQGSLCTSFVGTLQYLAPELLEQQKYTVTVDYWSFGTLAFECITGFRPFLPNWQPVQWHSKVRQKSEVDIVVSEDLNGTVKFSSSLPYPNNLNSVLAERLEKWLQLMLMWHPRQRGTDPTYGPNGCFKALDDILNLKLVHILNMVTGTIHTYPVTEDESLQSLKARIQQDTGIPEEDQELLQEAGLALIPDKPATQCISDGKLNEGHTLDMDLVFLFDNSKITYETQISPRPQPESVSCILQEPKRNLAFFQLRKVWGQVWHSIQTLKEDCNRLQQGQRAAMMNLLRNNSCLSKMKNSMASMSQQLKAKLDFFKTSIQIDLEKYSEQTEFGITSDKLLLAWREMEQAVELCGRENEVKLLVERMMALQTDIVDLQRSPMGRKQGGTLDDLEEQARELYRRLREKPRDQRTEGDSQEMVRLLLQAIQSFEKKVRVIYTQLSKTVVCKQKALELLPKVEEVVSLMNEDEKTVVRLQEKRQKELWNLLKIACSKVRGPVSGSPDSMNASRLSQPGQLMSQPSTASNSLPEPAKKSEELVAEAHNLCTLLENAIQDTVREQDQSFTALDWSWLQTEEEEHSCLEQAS
ASSAY_REMARKS: Inhibition of recombinant IKBKB (unknown origin) by FRET-based Z'-LYTE assay

COMPOUND_STRUCTURE_STRING: CN1C/C(=C\c2ccccn2)C(=O)/C(=C/c2ccccn2)C1
IC50, µM: 4

COMPOUND_STRUCTURE_STRING: CN1C/C(=C\c2ccccn2)C(=O)[C@@H](Cc2ccccn2)C1
IC50, µM: 15

COMPOUND_STRUCTURE_STRING: CN1C/C(=C\c2ccccn2)C(=O)[C@H](Cc2ccccn2)C1
IC50, µM: 15

COMPOUND_STRUCTURE_STRING: O=C1/C(=C/c2ccccn2)CSC/C1=C\c1ccccn1
IC50, µM: 34

====

# IC50 listing for each entry below
TEST_SYSTEM: RAF proto-oncogene serine/threonine-protein kinase (Homo sapiens, UniProt P04049)
Sequence (P04049 whole entry): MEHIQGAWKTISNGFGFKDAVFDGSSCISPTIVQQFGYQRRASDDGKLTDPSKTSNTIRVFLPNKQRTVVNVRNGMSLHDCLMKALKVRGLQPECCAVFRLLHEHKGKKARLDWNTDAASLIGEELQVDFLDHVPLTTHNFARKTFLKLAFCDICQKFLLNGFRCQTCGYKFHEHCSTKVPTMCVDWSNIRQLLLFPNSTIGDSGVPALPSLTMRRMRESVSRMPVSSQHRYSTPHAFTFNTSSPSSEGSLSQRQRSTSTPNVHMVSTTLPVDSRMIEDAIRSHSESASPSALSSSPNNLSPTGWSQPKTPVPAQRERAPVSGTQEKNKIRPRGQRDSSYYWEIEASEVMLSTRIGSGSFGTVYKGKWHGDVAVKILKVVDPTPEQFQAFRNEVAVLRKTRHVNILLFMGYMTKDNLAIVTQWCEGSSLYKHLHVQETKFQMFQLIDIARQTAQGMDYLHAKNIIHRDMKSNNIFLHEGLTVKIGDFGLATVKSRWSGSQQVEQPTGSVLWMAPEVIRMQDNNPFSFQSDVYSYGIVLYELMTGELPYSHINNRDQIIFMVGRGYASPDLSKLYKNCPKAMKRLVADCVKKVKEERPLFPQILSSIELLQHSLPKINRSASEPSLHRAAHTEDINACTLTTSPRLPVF
ASSAY_REMARKS: Inhibition of recombinant RAF1 (unknown origin) by cascade reaction assay

COMPOUND_STRUCTURE_STRING: CN1C/C(=C\c2ccccn2)C(=O)[C@H](Cc2ccccn2)C1
TEST_SYSTEM: RAF proto-oncogene serine/threonine-protein kinase (Homo sapiens, UniProt P04049)
CENSORING_QUALIFIER: >
IC50 / µM: 100

COMPOUND_STRUCTURE_STRING: CN1C/C(=C\c2ccccn2)C(=O)[C@@H](Cc2ccccn2)C1
TEST_SYSTEM: RAF proto-oncogene serine/threonine-protein kinase (Homo sapiens, UniProt P04049)
CENSORING_QUALIFIER: >
IC50 / µM: 100

COMPOUND_STRUCTURE_STRING: O=C1/C(=C/c2ccccn2)CSC/C1=C\c1ccccn1
TEST_SYSTEM: RAF proto-oncogene serine/threonine-protein kinase (Homo sapiens, UniProt P04049)
CENSORING_QUALIFIER: =
IC50 / µM: 8.5

COMPOUND_STRUCTURE_STRING: O=C1/C(=C/c2ccccn2)CNC/C1=C\c1ccccn1
TEST_SYSTEM: RAF proto-oncogene serine/threonine-protein kinase (Homo sapiens, UniProt P04049)
CENSORING_QUALIFIER: =
IC50 / µM: 1.6
